Reported inhibition of PMA-induced release of TNFα from U-937 cells, 3 µg/ml values for a set of binders
Molecular target: T1, human iRhom2 (inactive rhomboid protein 2, isoform 1), endogenously expressed on human cells (human, UniProt Q6PJF5 1-856)
T1 sequence: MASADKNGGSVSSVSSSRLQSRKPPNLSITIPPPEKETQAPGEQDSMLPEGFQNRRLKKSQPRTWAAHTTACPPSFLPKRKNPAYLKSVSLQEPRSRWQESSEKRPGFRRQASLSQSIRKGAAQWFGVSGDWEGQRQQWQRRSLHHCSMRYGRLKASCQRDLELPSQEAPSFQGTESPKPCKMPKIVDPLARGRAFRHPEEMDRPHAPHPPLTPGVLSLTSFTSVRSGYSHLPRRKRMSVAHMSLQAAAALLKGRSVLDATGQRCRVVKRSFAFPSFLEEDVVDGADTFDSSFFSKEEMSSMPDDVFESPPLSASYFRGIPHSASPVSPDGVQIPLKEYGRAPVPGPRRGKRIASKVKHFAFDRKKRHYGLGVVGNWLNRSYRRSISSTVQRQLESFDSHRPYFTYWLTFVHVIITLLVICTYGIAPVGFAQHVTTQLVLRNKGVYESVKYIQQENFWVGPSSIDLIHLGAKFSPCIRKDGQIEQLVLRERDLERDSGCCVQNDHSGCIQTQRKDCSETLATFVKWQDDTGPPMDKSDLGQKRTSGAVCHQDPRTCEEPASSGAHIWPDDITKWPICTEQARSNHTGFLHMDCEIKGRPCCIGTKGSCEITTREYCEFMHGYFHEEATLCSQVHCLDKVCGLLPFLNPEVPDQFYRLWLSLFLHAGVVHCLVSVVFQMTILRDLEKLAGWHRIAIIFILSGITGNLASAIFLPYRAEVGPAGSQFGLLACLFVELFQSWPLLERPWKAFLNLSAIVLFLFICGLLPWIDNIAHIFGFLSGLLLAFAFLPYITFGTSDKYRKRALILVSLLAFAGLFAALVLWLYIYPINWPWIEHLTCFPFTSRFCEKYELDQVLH
Experiment: cell-based or functional assay
Give a bare numeral; the unit % inhibition is implied.

Guide cases for inhibition of PMA-induced release of TNFα from U-937 cells, 3 µg/ml, answers given:
binder	unitLabel	observedMeasurement
chimeric version of antibody 44 (antibody, V domains shown) VH: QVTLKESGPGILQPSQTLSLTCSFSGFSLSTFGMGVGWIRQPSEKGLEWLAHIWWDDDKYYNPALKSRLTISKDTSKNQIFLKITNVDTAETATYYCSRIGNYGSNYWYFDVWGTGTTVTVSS VL: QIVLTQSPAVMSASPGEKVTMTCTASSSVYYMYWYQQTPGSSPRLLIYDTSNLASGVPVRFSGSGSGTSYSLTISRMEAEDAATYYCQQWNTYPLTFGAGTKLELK	% inhibition	89.2
antibody 16 (antibody, V domains shown, Mouse IgG, kappa light chain; also called clone #16; m16) VH: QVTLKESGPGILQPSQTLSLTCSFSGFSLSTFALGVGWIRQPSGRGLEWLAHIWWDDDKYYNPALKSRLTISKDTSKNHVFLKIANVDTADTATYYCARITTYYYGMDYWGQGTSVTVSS VL: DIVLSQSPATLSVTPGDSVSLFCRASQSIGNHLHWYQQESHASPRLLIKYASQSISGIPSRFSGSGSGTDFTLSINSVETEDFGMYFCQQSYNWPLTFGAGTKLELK	% inhibition	91.9

Now turn to the next binder.
Query (binder): chimeric version of antibody 34 (antibody, V domains shown) VH: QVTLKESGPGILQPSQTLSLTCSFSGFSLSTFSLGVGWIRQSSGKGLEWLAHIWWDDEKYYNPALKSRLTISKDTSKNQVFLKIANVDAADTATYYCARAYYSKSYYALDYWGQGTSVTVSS VL: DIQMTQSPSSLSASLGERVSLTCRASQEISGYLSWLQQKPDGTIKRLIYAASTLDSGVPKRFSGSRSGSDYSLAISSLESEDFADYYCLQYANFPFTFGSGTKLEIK ; field requested: inhibition of PMA-induced release of TNFα from U-937 cells, 3 µg/ml 87.4
